Reported pKi values for a set of compounds
assay system: Hypoxanthine-guanine phosphoribosyltransferase (Homo sapiens, UniProt P00492)
Sequence (P00492 whole entry): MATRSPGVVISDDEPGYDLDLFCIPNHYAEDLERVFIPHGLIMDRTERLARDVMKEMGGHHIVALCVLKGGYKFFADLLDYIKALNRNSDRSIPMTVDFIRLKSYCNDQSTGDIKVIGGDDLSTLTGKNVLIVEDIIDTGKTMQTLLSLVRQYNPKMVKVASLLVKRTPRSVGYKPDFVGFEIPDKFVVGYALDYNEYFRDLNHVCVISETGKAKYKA
pKi: −log10 of the molar value.
test readout: pKi

• Nc1nc2c(ncn2C[C@H](CO)n2cc(P(=O)(O)O)nn2)c(=O)[nH]1 = 7.00
• Nc1nc2c(ncn2C[C@@H](CO)n2cc(P(=O)(O)O)nn2)c(=O)[nH]1 = 6.40
• Nc1nc2c(ncn2[C@H]2CCN(C(=O)CP(=O)(O)O)C2)c(=O)[nH]1 = 1.14
• O=c1[nH]cnc2c1ncn2C[C@H](CO)n1cc(P(=O)(O)O)nn1 = 5.10

---

assay system: Adenosine deaminase (Plasmodium falciparum, UniProt Q86GS5)
Sequence (Q86GS5 whole entry): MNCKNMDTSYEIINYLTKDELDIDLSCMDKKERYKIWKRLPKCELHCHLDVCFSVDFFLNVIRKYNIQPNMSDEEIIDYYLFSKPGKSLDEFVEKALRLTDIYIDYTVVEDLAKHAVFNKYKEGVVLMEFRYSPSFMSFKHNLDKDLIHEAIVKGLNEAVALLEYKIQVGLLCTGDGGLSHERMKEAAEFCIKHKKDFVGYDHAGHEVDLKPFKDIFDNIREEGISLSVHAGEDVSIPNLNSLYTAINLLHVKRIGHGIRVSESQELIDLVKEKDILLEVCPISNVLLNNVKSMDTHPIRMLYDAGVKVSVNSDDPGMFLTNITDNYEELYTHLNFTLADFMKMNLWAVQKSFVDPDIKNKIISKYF
protocol description: Inhibition of Plasmodium falciparum N-terminal thrombin cleavable His6-tagged ADA expressed in Escherichia coli BL21 assessed as equilibrium dissociation constant by measuring reduction in formation of inosine using adenosine as substrate
test readout: Ki (nM)

• OC[C@H]1O[C@@H](n2cnc3c2N=CNC[C@H]3O)[C@H](O)[C@@H]1O [COFORMYCIN] = 0.08
